targetSystem: human ΔF508-CFTR (Homo sapiens, UniProt P13569, DEL508-508)
Construct: expressed in transfected cells
Sequence (P13569 with tags, fused parts or gaps DEL508-508): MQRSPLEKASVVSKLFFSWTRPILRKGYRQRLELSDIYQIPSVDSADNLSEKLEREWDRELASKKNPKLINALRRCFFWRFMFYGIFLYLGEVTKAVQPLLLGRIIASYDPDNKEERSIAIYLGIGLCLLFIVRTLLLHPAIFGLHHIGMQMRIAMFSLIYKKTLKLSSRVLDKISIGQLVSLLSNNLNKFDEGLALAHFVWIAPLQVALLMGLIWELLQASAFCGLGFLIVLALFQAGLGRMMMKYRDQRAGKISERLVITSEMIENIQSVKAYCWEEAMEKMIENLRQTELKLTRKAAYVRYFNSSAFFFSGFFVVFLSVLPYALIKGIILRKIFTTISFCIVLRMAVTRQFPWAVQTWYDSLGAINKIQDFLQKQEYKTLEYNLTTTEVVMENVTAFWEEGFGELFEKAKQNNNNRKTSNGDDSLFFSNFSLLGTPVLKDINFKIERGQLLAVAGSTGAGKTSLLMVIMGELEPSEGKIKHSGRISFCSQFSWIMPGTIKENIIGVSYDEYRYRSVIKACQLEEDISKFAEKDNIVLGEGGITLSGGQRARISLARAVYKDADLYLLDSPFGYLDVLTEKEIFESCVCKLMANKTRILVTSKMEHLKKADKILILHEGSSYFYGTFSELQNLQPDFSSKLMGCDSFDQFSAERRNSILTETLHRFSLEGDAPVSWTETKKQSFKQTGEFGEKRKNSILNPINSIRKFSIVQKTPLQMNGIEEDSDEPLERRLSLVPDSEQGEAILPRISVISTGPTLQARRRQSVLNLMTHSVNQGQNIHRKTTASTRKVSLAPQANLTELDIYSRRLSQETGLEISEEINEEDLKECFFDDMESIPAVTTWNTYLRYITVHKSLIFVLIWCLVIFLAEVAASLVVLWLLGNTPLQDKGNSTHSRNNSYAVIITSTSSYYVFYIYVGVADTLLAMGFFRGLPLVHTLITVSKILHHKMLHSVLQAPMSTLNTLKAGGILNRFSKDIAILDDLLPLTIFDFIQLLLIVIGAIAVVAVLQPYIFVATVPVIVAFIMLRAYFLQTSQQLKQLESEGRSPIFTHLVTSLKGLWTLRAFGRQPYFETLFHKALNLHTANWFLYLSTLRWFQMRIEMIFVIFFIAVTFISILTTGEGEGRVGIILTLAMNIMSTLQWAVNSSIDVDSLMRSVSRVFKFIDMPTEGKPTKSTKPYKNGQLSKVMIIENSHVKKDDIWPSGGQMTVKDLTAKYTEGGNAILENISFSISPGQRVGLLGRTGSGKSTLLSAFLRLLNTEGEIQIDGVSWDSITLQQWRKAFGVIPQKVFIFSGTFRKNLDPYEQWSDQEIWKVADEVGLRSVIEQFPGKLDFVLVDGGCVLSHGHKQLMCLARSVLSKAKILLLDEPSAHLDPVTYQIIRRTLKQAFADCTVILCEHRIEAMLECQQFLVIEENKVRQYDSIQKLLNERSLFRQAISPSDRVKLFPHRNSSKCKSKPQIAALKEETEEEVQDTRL
methodNotes: CFTR-YFP High Throughput Assay (HTS YFP flux assay, corrector / potentiator protocols)
Assay type: cell-based
testConditions: FRT cells stably expressing human ΔF508-CFTR and YFP-H148Q/I152L; normalized to positive control; read-out: Emax (% Efficacy, EMax normalized to the positive control)
Method: Assays for Detecting and Measuring the Effect of Compounds on dF508-CFTR Channels CFRT-YFP High Throughput Assay: Corrector Assay: The following protocol is designed to selectively screen small molecule compounds for F508del CFTR corrector activities in the HTS YFP flux assay. In this protocol, the cells are incubated with testing compounds for 24 hours, washed with PBS, stimulated with forskolin and a standard potentiator, and read on a 384-well HTS plate reader, such as the Hamamatsu FDDD-6000. […]
measureName: Emax

In the examples that follow, each entry is paired with its recorded Emax.
O=S(=O)(c1ccccc1)c1ccc2nnc(NCc3ccc(C(F)(F)F)cc3)n2c1 | 40 to 80%
CCN(CC)S(=O)(=O)c1ccc2nnc(N[C@@H](C)C(=O)N3CCCCC3)n2c1 | 40 to 80%
CCN(CC)S(=O)(=O)c1ccc2nnc(NC(C)C(C)C)n2c1 (stereo not drawn) | > 80%
CCN(CC)S(=O)(=O)c1ccc2nnc(NCc3ccc(C)c(C)c3)n2c1 | > 80%
Cc1ccc(CNc2nc3ccc(S(=O)(=O)N4CCCCC4)cn3n2)cc1 | > 80%

stdin: Given the molecule CCN(CC)S(=O)(=O)c1ccc2nnc(NCc3cccc(C#N)c3)n2c1 , what is its reported Emax?
stdout: > 80%

stdin: Ok, now CCN(CC)S(=O)(=O)c1ccc2nnc(N[C@H](C)C3CCCCC3)n2c1
stdout: > 80%

stdin: Ok, now CCN(CC)S(=O)(=O)c1ccc2nnc(N[C@H](C)c3ccc(C)cc3)n2c1
stdout: > 80%

stdin: Ok, now CCN(CC)S(=O)(=O)c1ccc2nnc(NC(C)c3ccc(C)cc3)n2c1 (stereo not drawn)
stdout: > 80%

stdin: Ok, now CCN(CC)S(=O)(=O)c1ccc2nnc(NC3CCc4ccccc43)n2c1 (stereo not drawn)
stdout: > 80%

stdin: Ok, now O=S(=O)(c1ccccc1)c1ccc2nnc(NCc3ccc(-c4ccccn4)cc3)n2c1
stdout: > 80%

---

// EC50 lookup, one value per entry
targetSystem: human ΔF508-CFTR (Homo sapiens, UniProt P13569, DEL508-508)
methodNotes: CFTR-YFP High Throughput Assay (HTS YFP flux assay, corrector / potentiator protocols)
testConditions: FRT cells stably expressing human ΔF508-CFTR and YFP-H148Q/I152L

In the examples that follow, each entry is paired with its recorded EC50.
C[C@@H](Nc1nc2ccc(S(=O)(=O)c3ccccc3)cn2n1)c1ccccc1 [Example 81] | < 1 µM
O=S(=O)(c1ccccc1)c1ccc2nnc(NCC(O)C3CCCCC3)n2c1 (stereo not drawn) [Example 66] | < 1 µM
CCN(CC)S(=O)(=O)c1ccc2nnc(N[C@@H](C)C(=O)N3CCCCC3)n2c1 [Example 57] | 1 to 10 µM
CCN(CC)S(=O)(=O)c1ccc2nnc(NC3CCCC3)n2c1 [Example 26] | < 1 µM
CCN(CC)S(=O)(=O)c1ccc2nnc(NC3Cc4ccccc4C3)n2c1 [Example 4] | < 1 µM
CCN(CC)S(=O)(=O)c1ccc2nnc(NC3CCc4ccccc43)n2c1 (stereo not drawn) [Example 30] | < 1 µM

stdin: Given the molecule CCN(CC)S(=O)(=O)c1ccc2nnc(NCc3cccc(C)c3)n2c1 [Example 10] , what is its reported EC50?
stdout: < 1 µM

stdin: Ok, now CCN(CC)S(=O)(=O)c1ccc2nnc(NCc3ccccc3F)n2c1 [Example 54]
stdout: 1 to 10 µM

stdin: Ok, now O=C(CNc1nc2ccc(S(=O)(=O)c3ccccc3)cn2n1)C1CCCCC1 [Example 87]
stdout: < 1 µM

Just for reference, patent US9926315B2 is where these values come from.
